Entry source: PubChem BioAssay

Field: composite z-score. Provide a value for each of the molecules that follow.
- assayTarget: Follistatin (Homo sapiens) (UniProt P19883)
- Sequence (P19883 whole entry, looked up): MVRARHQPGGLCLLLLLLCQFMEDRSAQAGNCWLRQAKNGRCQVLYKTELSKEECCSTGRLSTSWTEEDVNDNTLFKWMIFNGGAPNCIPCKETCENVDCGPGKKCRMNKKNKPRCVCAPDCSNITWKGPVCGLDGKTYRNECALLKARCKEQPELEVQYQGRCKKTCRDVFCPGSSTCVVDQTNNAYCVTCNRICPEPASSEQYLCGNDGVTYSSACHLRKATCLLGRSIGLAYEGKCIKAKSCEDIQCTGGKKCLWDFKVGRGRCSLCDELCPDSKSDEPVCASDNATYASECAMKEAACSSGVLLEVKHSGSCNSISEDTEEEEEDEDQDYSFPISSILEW
- assayComment: follistatin binders on small-molecule microarrays, primary screen, biochemical, small-molecule microarray, 635/667 nm fluorescence (AID 1132)
- measurementConditions: FST binding, 635 nm fluorescence, higher = more signal
Answer with a number only.

Request: Return reported composite z-score; argument: CC1CC/C=C\[C@H]2OC34C=CCN(CCN5CCOCC5)C(=O)[C@H]3N(C(C)CO)C(=O)[C@@H]4C2C(=O)O1 (stereo partly drawn)
Result: 0.446

Request: Next molecule: COCCOC(=O)N1C(=O)[C@@]2(c3ccccc31)[C@H](c1ccccc1OCCO)N1[C@H](c3ccccc3)[C@H](c3ccccc3)OC(=O)[C@H]1[C@@H]2C(N)=O
Result: 1.4

Request: Follow-up item: CC(C)C[C@@H]1NC(=O)CNC(=O)[C@@]23C(=O)N[C@@H](Cc4ccccc4)C2[C@H](C)[C@@]2(C)O[C@H]2C3/C=C/C/C=C\CNC1=O (stereo partly drawn)
Result: 1.08

Request: And CC(C)c1ccc(NN2C(C(O)Cc3ccccc3)C=CC3C(=O)N(c4ccccc4)C(=O)C32)cc1 (stereo not drawn) ?
Result: 1.28

Request: Now the same for COC(=O)C1=CC(CCCO)=CC(c2ccc(CN3CCCC3)cc2)N(Cc2cc3c(cc2Br)OCO3)C=C1C(=O)OC (stereo not drawn)
Result: 1.2

Request: Another molecule to look at: COC(=O)[C@@]1(Cc2ccccc2CN=[N+]=[N-])N=C(c2ccc(OCCCO)cc2)O[C@H]1c1ccccc1CN=[N+]=[N-]
Result: -0.261

Request: Also CC(C)C(CO)N1C(=O)[C@@H]2[C@H]3C(=O)OCC=C[C@H]3OC23C=CCN(C(C)(C)C)C(=O)[C@@H]13 (stereo partly drawn) , if possible.
Result: 0.277

Request: Here is the next molecule: NC(=O)[C@H]1[C@@H]2C(=O)O[C@@H](c3ccccc3)[C@@H](c3ccccc3)N2[C@@H](c2ccc(O)cc2)[C@]12C(=O)Nc1ccccc12
Result: -0.441

Request: And for C=CCC(OC(C)=O)[C@@H]1[C@@H](N(Cc2cccc3ccccc23)C(=O)c2cccc3ccccc23)c2cc(OCCCO)ccc2N1C(=O)c1ccc2ccccc2c1 (stereo partly drawn) ?
Result: 1.14

Request: Then this molecule: C=CCC(OC(C)=O)[C@@H]1[C@@H](N(Cc2ccc(-c3ccccc3)cc2)C(=O)Cc2ccc(F)cc2)c2cc(OCCCO)ccc2N1C(=O)Cc1ccc2ccccc2c1 (stereo partly drawn)
Result: 0.305

Request: Entry CC(C)CNC(=O)[C@@H]1c2ccccc2C(=O)N(C2CCCCC2)[C@H]1c1ccc(CO)cc1 please
Result: 0.196

Request: Same for [N-]=[N+]=Nc1ccccc1C[C@]1(C(=O)NCc2ccccc2)COC(c2ccc(OCCCO)cc2)=N1
Result: 1.16

Request: Now give it for Cc1cccc([C@H]2C[C@H]3C(Br)=C[C@@H]2C(=O)[C@]32CO2)c1 too.
Result: 0.243

Request: What do you get for C=C(/C(=C/C[C@@H](OC(=O)c1ccncc1)c1cccc(OCCO)c1)c1cnc2ccccc2c1)C(C)C ?
Result: 1.42

Request: Also O=C1OCC=C[C@H]2OC34C=CCN(c5ccc6ccccc6c5)C(=O)[C@H]3N(CCCCCO)C(=O)[C@@H]4[C@@H]12 (stereo partly drawn) , if possible.
Result: -1.38

Request: Also CN(C)CCCCNC(=O)[C@H]1C[C@H]2C(=O)N[C@@H](CCCC[N+](C)(C)C)C(=O)N2[C@H]1c1ccc(O)cc1 ?
Result: 0.525

Request: Continue with CC(C)(C)OC(=O)CC[C@]1(C(=O)N2CCCCC2)COC(c2ccc(OCCCO)cc2)=N1
Result: 0.778

Request: Another molecule to look at: CCOC(=O)C[C@H]1[C@H](OC(=O)c2ccc(C(=O)c3ccccc3)cc2)[C@@H](NC(=O)CC(C)C)c2cc(OCCCO)ccc2N1C(=O)Cc1ccc(OC)cc1
Result: 0.264

Request: What about COC(=O)C(CC#Cc1ccc2c(c1)[C@]1(C(=O)N2)[C@H](C(=O)Nc2nc3ccccc3s2)[C@H]2C(=O)O[C@H](c3ccccc3)[C@H](c3ccccc3)N2[C@@H]1c1ccc(OCCO)cc1)C(=O)OC ?
Result: 1.45

Request: Please do the same for O=C(O)[C@@H]1C[C@@H]2C(=O)N3CCC[C@H]3C(=O)N2[C@@H]1c1cccc(OCCO)c1 as well.
Result: 1.41

Request: Another molecule: [N-]=[N+]=NCc1ccccc1[C@H]1OC(c2ccc(OCCCO)cc2)=N[C@@]1(Cc1ccccc1)C(=O)NCCN1CCOCC1
Result: 1.33

Request: Follow-up entry: COC(=O)C1N=C(c2ccc(OCCCO)cc2)N(c2ccccc2)O1 (stereo not drawn)
Result: 1.33

Request: Same question for COCCCNC(=O)[C@@]1(c2ccc([N+](=O)[O-])cc2)CC(=O)N(C(C)C)[C@@H]1c1ccc(CO)cc1 please.
Result: 0.559

Request: And CCc1cccc(NC(=O)O[C@H]2[C@H](OC(=O)Nc3ccccc3)[C@H](OC(=O)Nc3ccccc3)[C@@H](OC)O[C@@H]2CO)c1 ?
Result: 1.16

Request: How about this molecule: COCCOC(=O)N1C(=O)[C@@]2(c3cc(C#CCNC(N)=O)ccc31)[C@H](c1ccc(OCCO)cc1)N1[C@H](c3ccccc3)[C@H](c3ccccc3)OC(=O)[C@H]1[C@@H]2C(N)=O
Result: 0.926

Request: Same again, this time with C=C(CCCC)C(=O)CC[C@@H](OC(=O)c1cccnc1)c1ccc(OCCO)cc1
Result: 1.47

Request: Here is the next molecule: CCCCC(=C=CC[C@H](O)c1ccc(OCCO)cc1)C[C@H](O)COCc1ccccc1
Result: 0.163

Request: Further, for COc1ccc(C#Cc2ccc3c(c2)[C@]2(C(=O)N3)[C@H](C(=O)N3CCCCCCC3)[C@H]3C(=O)O[C@H](c4ccccc4)[C@H](c4ccccc4)N3[C@@H]2c2ccc(O)cc2)cc1 ?
Result: 1.31
